Assay method text: Human HepG2 cell viability assay in 384 well format
Type: toxicity, cell-based
Design: dose 125 nL, time 70.5 hour; concentration not given beside the values
Assay context: HepG2 cells, read-out: Inhibition
Outcome measure: cytotoxicity at 70.5 h

INSERT INTO assay_data (compound, data_value) VALUES
  ('CCOCCn1nc(C2CCNCC2)n(Cc2ccccc2)c1=O', '3.02%'),
  ('CN1CCCCC1c1ncc2c(n1)CCN(CCCc1ccccc1)C2 (stereo unspecified)', '16.2%'),
  ('CC(C)(C)c1ncc(C(=O)N2CCC(N3CCSCC3)CC2)c(O)n1', '-7.4%'),
  ('Cc1nc(COC(=O)c2cccc3c2OCCO3)no1', '23.5%'),
  ('Cc1nc(CN2CCCn3cnc(COCC4CC4)c3C2)cs1', '-1.49%'),
  ('O=C(CN1C[C@H]2CC[C@@H]1CN(Cc1ccccn1)C2)NCc1cccs1', '-7.94%'),
  ('CCc1cnc(N2CC[C@H]3[C@@H]2CCC(=O)N3CC2CCOCC2)nc1', '20.9%'),
  ('Cc1cc(CN2CC[C@H]3C[C@H](C(=O)N(C)C)O[C@@H]3C2)no1', '-13.6%'),
  ('CCc1nccn1CCCNC(=O)c1cnn(-c2ccccc2OC)c1', '-5.05%'),
  ('CS(=O)(=O)N1CCN(c2ccc(Nc3ccccn3)nn2)CC1', '-6.91%'),
  ('O=C(NC1CCCC1)c1cc(Sc2ncccn2)ccn1', '-13.6%');

---

Assay method text: Human HepG2 cell viability assay in 384 well format
Assay type: toxicity, cell-based
Design: dose 125 nL, time 70.5 hour; concentration not given beside the values
Assay context: HepG2 cells, read-out: Inhibition
Outcome measure: cytotoxicity at 70.5 h (%)

INSERT INTO results (molecule, readout_units, data_value) VALUES
  ('CCc1ccc(C(=O)N2CCC(N(C)C(=O)OC(C)(C)C)C2)o1 (stereo not given)', '%', 0.0812),
  ('COC(=O)C1CCCN1Cc1ccco1 (stereo not given)', '%', -8.41),
  ('CCCc1cc(C(=O)N2Cc3ccccc3C2)[nH]n1', '%', 6.06),
  ('CN1CCN(c2cnn(CCn3cccn3)c(=O)c2)CC1', '%', -3.04),
  ('Nc1ccnc(N2CCC(CCc3ccccc3)(C(=O)O)CC2)n1', '%', 14.5),
  ('CNc1snc(C)c1C(=O)NC(C)CC(=O)c1cccs1 (stereo not given)', '%', -14.5),
  ('COc1cc(CNCc2ccnc(N3CCOCC3)c2)cc(OC)c1', '%', 17.7),
  ('CCc1cnc(CNC(=O)N2CCCC(c3ncc[nH]3)C2)s1 (stereo not given)', '%', -4.75),
  ('O=C1CC(c2ccccc2)c2cnn(C3CCCC3)c2N1 (stereo not given)', '%', 18.5),
  ('CC(C)C(=O)N1CCCC2(CCCN2CC2CCCC2)C1 (stereo not given)', '%', -2.41),
  ('CN(C)c1nc(N2CCCC2)nc2c1CCN(C(=O)c1ccco1)CC2', '%', -7.2),
  ('Cc1cc(CN[C@@H](C)C(N)=O)c(C)s1', '%', -7.91),
  ('CCOC1COC2(CCN(S(=O)(=O)c3ccc(F)cc3)CC2)C1 (stereo not given)', '%', -12.9),
  ('COc1ccc(CN2CCC(c3nnc(-c4scnc4C)o3)CC2)cc1', '%', -3.83),
  ('CC(C)CN1CCn2nc(CNc3ncnc4[nH]ccc34)cc2C1', '%', 7.26),
  ('CNC(=O)C(C)NC(=O)c1ccc(Oc2cccnc2)cc1 (stereo not given)', '%', -10.1),
  ('Cc1cnc(-c2nc(C3CCCN(Cc4cccs4)C3)no2)cn1 (stereo not given)', '%', 23.7),
  ('O=C1CC2(CCCNC2)C(=O)N1Cc1ccc(Cl)cc1 (stereo not given)', '%', -15.9),
  ('Cn1c(=O)n(C)c2nc(Br)c(CC(=O)c3ccccc3)n2c1=O', '%', -4.55),
  ('O=C(N[C@@H]1CN(CCc2ccc(F)cc2)C[C@H]1O)c1cscn1', '%', -6.14),
  ('CSc1ccc(NCc2csc(CS(C)(=O)=O)n2)cc1F', '%', -1.97),
  ('CCCOC(=O)N1CCCn2nc(C(=O)Nc3ccccc3)cc2C1', '%', -9.85),
  ('CCN(CC)C(=O)N1CCN(CCc2ccncc2)CC1', '%', -7.09),
  ('CCN(CCn1cccn1)Cc1nc(-c2ccoc2)oc1C', '%', 14),
  ('O=C(CNc1cc(-n2cnnn2)ccc1F)Nc1cc(F)ccc1F', '%', -96.7);

---

Listed here are compounds together with their documented cytotoxicity at 70.5 h.
Assay method text: Human HepG2 cell viability assay in 384 well format
Format: toxicity, cell-based
Design: dose 125 nL, time 70.5 hour; concentration not given beside the values
Assay context: HepG2 cells, read-out: Inhibition
Outcome measure: cytotoxicity at 70.5 h (%)

INSERT INTO results (compound, outcome_measure, data_value) VALUES
  ('CC(C)c1nccc(CN2CCC(c3nc4ccccc4n3C)CC2)n1', 'cytotoxicity at 70.5 h', -20.5),
  ('CN(C)S(=O)(=O)N1CCN(c2nccc(C(F)(F)F)n2)CC1', 'cytotoxicity at 70.5 h', -0.547),
  ('CN(C)C(=O)COC[C@H]1CC[C@@H]2[C@@H](CCN2Cc2ccccn2)O1', 'cytotoxicity at 70.5 h', -7.44),
  ('CCc1cc(NCCNC(C)=O)nc(N2CCCC2)n1', 'cytotoxicity at 70.5 h', 23.3),
  ('COCCN(Cc1ccccn1)C(=O)c1ccc(=O)n(C)c1', 'cytotoxicity at 70.5 h', 1.44),
  ('COc1cccc(C2CC(=O)Nc3c2cnn3C(C)(C)C)c1 (configuration not stated)', 'cytotoxicity at 70.5 h', -6.1),
  ('Cc1nccn1C1CCCN(C(=O)c2ccc(-n3cccn3)nc2)C1 (configuration not stated)', 'cytotoxicity at 70.5 h', 0.896),
  ('O=C(C1=CCCCC1)N1CCC2(CC1)COC(COc1ccccn1)C2 (configuration not stated)', 'cytotoxicity at 70.5 h', -3.14),
  ('O=C(Cn1nc(C(F)(F)F)c(Cl)c1C1CC1)NN1CCOCC1', 'cytotoxicity at 70.5 h', 12.9),
  ('CC(C)c1cc(C(=O)NCC2(C(N)=O)CCOCC2)nn1C(C)(C)C', 'cytotoxicity at 70.5 h', -4.75),
  ('Cc1noc(-c2ccnc(Oc3ccc(CN4CCCC4)cc3F)c2)n1', 'cytotoxicity at 70.5 h', 13.3),
  ('O=C1CCOC[C@]2(CN(Cc3ccccc3)C[C@H]2c2cccnc2)N1', 'cytotoxicity at 70.5 h', 15.4),
  ('Cc1nccc(CNc2cc(N3CCCC3CO)ncn2)n1 (configuration not stated)', 'cytotoxicity at 70.5 h', 2.68),
  ('Cc1nc(CN2CCOC3(CCCC3)C2)oc1C', 'cytotoxicity at 70.5 h', -4.4),
  ('Cn1nc(Br)c2c(NCCS(N)(=O)=O)ncnc21', 'cytotoxicity at 70.5 h', 28.8),
  ('Cc1cccc(-c2noc(C)c2C(=O)NC2CCCOC2)c1 (configuration not stated)', 'cytotoxicity at 70.5 h', -10.9),
  ('Cc1ccccc1OCC(=O)N1CCOC2(CNCCOC2)C1 (configuration not stated)', 'cytotoxicity at 70.5 h', -5.6),
  ('O=C(c1c[nH]cn1)N1CCC(n2cc(-c3ccsc3)nn2)CC1', 'cytotoxicity at 70.5 h', 18),
  ('CCc1nnc(CN2CCOC(Cn3cccn3)C2)o1 (configuration not stated)', 'cytotoxicity at 70.5 h', -8.14),
  ('Cc1cc(CN(C)C(=O)CN2CCCC2=O)no1', 'cytotoxicity at 70.5 h', -15.2),
  ('O=C(c1ccccc1F)N1CCOC(c2nc(-c3ncccn3)no2)C1 (configuration not stated)', 'cytotoxicity at 70.5 h', -2.38),
  ('Cn1ccnc1CN1CCC2(CC1)CCN(Cc1ccoc1)C2', 'cytotoxicity at 70.5 h', -2.31),
  ('CCN1CC2(CCC1=O)CCN(CCOc1ccc(F)cc1)CC2', 'cytotoxicity at 70.5 h', -13),
  ('Cc1nnsc1C(=O)N(C)Cc1nc(-c2ccccn2)no1', 'cytotoxicity at 70.5 h', -2.75),
  ('CC(C)C(=O)N1CCCC12CCCN(C(=O)c1ccno1)C2 (configuration not stated)', 'cytotoxicity at 70.5 h', 13.3),
  ('CC(C)CNC(=O)CCN1C(=O)CCc2cc(F)ccc21', 'cytotoxicity at 70.5 h', -4.13),
  ('CC(C)N1CCCC(CN(C)c2ccc(Cn3ccnc3)cn2)C1 (configuration not stated)', 'cytotoxicity at 70.5 h', -12.6),
  ('Cc1ccc(C(=O)N2C[C@H](OCc3cccnc3)[C@H]3COC[C@H]32)cn1', 'cytotoxicity at 70.5 h', -2.21),
  ('Cc1cccc(CO[C@@H]2CC[C@H]3[C@H]2OCCN3Cc2cc(C)on2)n1', 'cytotoxicity at 70.5 h', -0.405),
  ('COCCC(=O)N1CCc2nc(N3CCOCC3)nc(NC(C)C)c2C1', 'cytotoxicity at 70.5 h', -17),
  ('Cc1cc(C2CCCN2C(=O)c2csc(-c3cnn(C)c3)n2)on1 (configuration not stated)', 'cytotoxicity at 70.5 h', 2.44),
  ('COc1ccc(NC(=O)NCc2cccc(N(C)C)n2)c(Cl)c1', 'cytotoxicity at 70.5 h', -8),
  ('Cc1ccc(CN2CCc3onc(C(=O)NC(C)C)c3C2)o1', 'cytotoxicity at 70.5 h', -8.41),
  ('Cc1nnsc1CN(C)C(=O)c1ccc(CSc2nnc[nH]2)o1', 'cytotoxicity at 70.5 h', -10.2),
  ('Cc1ccnc(C2CCCN2C(=O)CN(C)C)n1 (configuration not stated)', 'cytotoxicity at 70.5 h', -1.48),
  ('O=C(NC1CC1)[C@H]1CN(Cc2ccc3c(c2)OCO3)C[C@H]2OCC[C@@H]12', 'cytotoxicity at 70.5 h', -1.23),
  ('COc1c(F)cc(F)cc1-c1nc2c([nH]1)CCNC2', 'cytotoxicity at 70.5 h', 14.9),
  ('COc1cc(CN2CCN(CC3CC3)[C@@H]3CS(=O)(=O)C[C@@H]32)cc(OC)c1', 'cytotoxicity at 70.5 h', 3.14),
  ('COCCCNC(=O)CN(C)C(=O)c1ccc(OC)cc1O', 'cytotoxicity at 70.5 h', -5.57),
  ('Cc1ccccc1CC(=O)N1CCc2c(ncnc2N2CCOCC2)C1', 'cytotoxicity at 70.5 h', 13.5),
  ('CN(C)C(=O)c1cccnc1-c1ccc2c(c1)OCO2', 'cytotoxicity at 70.5 h', -11.3),
  ('Cn1ccnc1CN1CCN(Cc2ccc(C#N)cc2F)CC1', 'cytotoxicity at 70.5 h', -1.66),
  ('c1ccc(C2CCCN(Cc3cc4n(n3)CCNC4)CC2)cc1 (configuration not stated)', 'cytotoxicity at 70.5 h', -6.51),
  ('O=C(NCC1CC1)C1CN(Cc2ccncc2)Cc2ccnn2C1 (configuration not stated)', 'cytotoxicity at 70.5 h', -11.9),
  ('COCCNC(=O)[C@H]1CO[C@H]2CCN(Cc3cccs3)C[C@H]2C1', 'cytotoxicity at 70.5 h', -1.82),
  ('COc1ccc(NC(=O)NC(C)c2nc[nH]n2)cc1Cl (configuration not stated)', 'cytotoxicity at 70.5 h', -2.57),
  ('CCc1noc(C)c1C(=O)NCC(c1ccc(C)cc1)N(C)C (configuration not stated)', 'cytotoxicity at 70.5 h', -3.99);
